Measured IC50 of individual entries
# Test system: cancer cell lines
# measurement-protocol: Cancer cell proliferation activity of representative nucleosides, CellTiterGlo 72 h (Example 7, Tables 8 and 9)
# Type: cell-based
# settings: Homo sapiens, EFO-21, 72 h, EFO21, 72 h (Table 9)
Give just the number in µM; leave the unit off.

compound	reading
C#C[C@]1(CO)O[C@@H](n2cnc3c(N)nc(F)nc32)C[C@@H]1O [Islatravir (EFdA), Islatravir, reference compound]	4.62

--- query ---
Prompt: For the compound Nc1ccn([C@H]2C[C@H](O)[C@](CO)(CF)O2)c(=O)n1 , what IC50 is on record?
Completion: 0.79
